System: SW-620 colon
Assay info: NCI tumour cell line growth inhibition, 48 h
Measure name: TGI

Answered cases to consult:
Compound	TGI
O=C(/C=C/NC(=O)OCc1ccccc1)OCc1ccccc1	> 100 µM
Cn1ccc(=O)c2c(O)c3ccccc3c(O)c21	> 100 µM
CC(=O)O[C@H]1C(=O)[C@@]2(C)[C@H]([C@H](OC(=O)c3ccccc3)[C@]3(O)C[C@H](OC(=O)[C@H](O)[C@@H](NC(=O)c4ccccc4)c4ccccc4C)C(C)=C1C3(C)C)[C@]1(OC(C)=O)CO[C@@H]1C[C@@H]2O	> 25 µM
O=[N+]([O-])c1cc(Cl)c(Cl)cc1[N+](=O)[O-]	7.73 µM
COc1cc(OC)c2c(c1-c1ccc(C)cc1)CC(C)N(Cc1ccccc1)[C@H]2C (stereo partly specified)	> 100 µM

Q: I would be grateful if you could share the reported TGI for `CCn1c(=O)c(Oc2ccc(F)cc2F)cc2cnc(NC3CCOCC3)nc21` .
Result: > 25 µM

Q: Item `Oc1ccc(O)c(Cc2ccccc2)c1` has what recorded TGI?
Result: 56.9 µM

Q: Item under review: `COc1ccc(CC#C/C=C/C(=O)NCC(C)C)cc1` . Reported TGI?
Result: > 100 µM

Q: Any idea what its TGI is? The compound is `COC1=CC(=Nc2c(Cl)cc(Cl)cc2OC(=O)c2ccc([N+](=O)[O-])cc2)C=C(OC)C1=O`
Result: 26.8 µM

Q: Need TGI, item `Nc1nonc1C(=Nc1ccc(F)c(Cl)c1)NO`
Result: > 100 µM

Q: Name the recorded TGI for `CCCN=Cc1c(O)c(O)c(C(C)C)c2cc(C)c(-c3c(C)cc4c(C(C)C)c(O)c(O)c(C=NCCC)c4c3O)c(O)c12` .
Result: > 100 µM

Q: Would you mind telling me what TGI value was observed for `CC(C)OC(=O)C1=C2c3ncccc3C(=O)N2[C@@H](Cl)[C@H](Cl)[C@H]1Cl` ?
Result: > 100 µM

Q: Please look up its TGI: `Cn1c(-c2ccccc2)cc(-c2ccsc2)c1-c1ccsc1`
Result: > 100 µM

Q: // query TGI value for entry `CN(C)c1cc[n+](/C(NS(=O)(=O)c2cc(C(=O)Nc3ccc(Cl)cc3)c(Cl)cc2[S-])=C(\C#N)C(=O)c2ccccc2)cc1`
Result: > 100 µM

Q: # lookup: TGI of COC(=O)CN(CC1O[C@@H]2OC(C)(C)O[C@@H]2C1N=[N+]=[N-])C(=O)OCc1ccccc1 (stereo partly specified)
Result: > 100 µM

Q: Please look up its TGI: `COc1cc([C@@H]2c3cc4c(cc3[C@@H](Nc3ccc(N=Cc5ccc(C(=O)O[C@@H](C(=O)O[C@H]6C[C@@]7(O)[C@@H](OC(=O)c8ccccc8)[C@@H]8[C@]9(OC(C)=O)CO[C@@H]9C[C@H](O)[C@@]8(C)C(=O)[C@H](OC(C)=O)C(=C6C)C7(C)C)[C@@H](NC(=O)c6ccccc6)c6ccccc6)cc5)cc3)[C@H]3COC(=O)[C@H]23)OCO4)cc(OC)c1O`
Result: > 50 µM

---

Tested on: SW-620 colon
Assay info: NCI tumour cell line growth inhibition, 48 h
Measure name: TGI

Compound	Result
CN(C)/C=C1\CCc2ccc([N+](=O)[O-])cc2C1=O	97.1 µM
Cc1cc(Nc2ccc(S(=O)(=O)O)cc2)c2ccccc2n1	> 100 µM
O=C1Nc2cc(Cl)ccc2C(=O)N2CCC[C@@H]12	> 100 µM
CCOC(=O)C1C(O)CC2c3ccccc3-c3ccccc3C21 (stereo not given)	> 100 µM
CCOC(=O)C(C)c1c(C(=O)c2ccc(C)nc2)c2ccccc2n1C (stereo not given)	> 100 µM
C=C(CNCCc1ccc(O)cc1)[C@@H]1CC[C@]2(CO)CC[C@]3(C)[C@H](CC[C@@H]4[C@@]5(C)CCC(NCCc6ccc(O)cc6)C(C)(C)[C@@H]5CC[C@]43C)[C@@H]12 (stereo not given in full)	0.352 µM

// next item, TGI requested
Q: Bench note: what TGI did COC(=O)/C=C/C1C2C3(CCC(C)C12C)OCCS3 (stereo not given) show?
Result: > 100 µM

---

Test system: DMS 273 small cell lung
Assay info: NCI tumour cell line growth inhibition, 48 h
Measure name: TGI

Molecule	Measured target	TGI
Clc1cccc(Cl)c1C1SCc2nc3ccccc3n21 (configuration not stated)	DMS 273 small cell lung	> 100 µM
Cc1cc(=O)oc2cc(OCc3nc4ccccc4c(=O)n3-c3ccccc3)ccc12	DMS 273 small cell lung	> 100 µM

Q: Quick check: TGI on DMS 273 small cell lung, item `O=C(Cc1nc2ccccc2o1)C(=O)Nc1ccccc1C(F)(F)F` ?
Result: > 100 µM

Q: What reported TGI corresponds to O=C(c1nc2ccc(Cl)cc2[nH]c1=O)C(O)c1ccccc1 (configuration not stated) on DMS 273 small cell lung?
Result: > 100 µM

Q: Short answer please: TGI, DMS 273 small cell lung, entry C=CCSc1ncnc2c1ncn2C1OC(CO)C(O)C1O (configuration not stated)
Result: > 100 µM

Q: // lookup TGI | system=DMS 273 small cell lung | key= COc1cc2c(cc1OC)C1[C@@H](c3ccccc3)OCN1CC2 (some centres not stated)
Result: > 100 µM

---

Tested on: BT-549 breast
Assay info: NCI tumour cell line growth inhibition, 48 h
Listed next: entries and their corresponding GI50.

Compound	Result
O=C1Nc2ccccc2/C1=C\c1c(Cl)nc2sccn12	1150 nM
c1ccc2cc(C[n+]3ccn(CCCCCCCCCCCCn4cc[n+](Cc5ccc6ccccc6c5)c4)c3)ccc2c1	467 nM
c1ccc([P+](c2ccccc2)(c2ccccc2)c2ccc3c4ccc([P+](c5ccccc5)(c5ccccc5)c5ccccc5)c5cccc(c6cccc2c63)c54)cc1	455 nM
NCCCCCCCCCCn1c2c(c3ccccc3c1=O)C(=O)c1ccccc1-2	5640 nM
CCO/C=N/C1=C(C#N)C(c2ccc(OC)cc2)c2sc3c(F)cccc3c2O1 (centres undefined)	7170 nM
CCOC(=O)N1C/C(=C/c2ccc(Cl)cc2)C(=O)/C(=C/c2ccc(Cl)cc2)C1	2410 nM

Q: Look at this compound and give its reported GI50. `O=C(Nc1nc(-c2ccc(Cl)cc2)cs1)c1cc(-c2ccc(Br)cc2)nc2ccc(Cl)cc12`
Result: 2470 nM

Q: Request the reported GI50 associated with `N#Cc1c(-c2ccccc2)cc(-c2ccccc2)n(CCCC(=O)NO)c1=O`
Result: 2770 nM

Q: Any idea what its GI50 is? The compound is CNC(=O)NCC1OC(n2cnc3c(NC(=O)Nc4ccccc4)ncnc32)C(O[Si](C)(C)C(C)(C)C)C1CC(=O)N(C)OC (centres undefined)
Result: 9580 nM

---

Test system: KM20L2 colon
Assay info: NCI tumour cell line growth inhibition, 48 h
Collected TGI values appear next to each entry.

Compound	Result
O=C(Cc1nc2ccccc2o1)C(=O)Nc1ccccc1C(F)(F)F	> 100 µM

Q: API: value(readout= TGI, system= KM20L2 colon, query= O/N=C1/C(=C/c2ccc(Cl)c(Cl)c2)CCCC1C(NO)c1ccc(Cl)c(Cl)c1 (stereo unspecified) )
Result: 35.3 µM

Q: Request body: readout TGI, system KM20L2 colon, query `NC1CCCCC1N.Nc1c(N=Nc2ccc(-c3ccc(N=Nc4cc(S(=O)(=O)[O-])c5ccccc5c4N)cc3)cc2)cc(S(=O)(=O)[O-])c2ccccc12.[OH3+].[OH3+].[Pt+4]` . Return the value.
Result: > 100 µM

Q: Quick check: TGI on KM20L2 colon, item `COC1=CC(=Nc2c(Cl)cc(Cl)cc2OC(=O)c2ccc([N+](=O)[O-])cc2)C=C(OC)C1=O` ?
Result: 32.8 µM

Q: Give TGI (KM20L2 colon) of the following compound: `CCOc1ccc(N=Nc2ccc3oc(=O)c(/C(C)=N/NC(=O)CC(=O)Nc4cccc(OC)c4)cc3c2)cc1`
Result: > 31.6 µM

Q: Form: Entry = COC(=O)/C=C/C1C2C3(CCC(C)C12C)OCCS3 (stereo unspecified) | System = KM20L2 colon | TGI = ____
Result: > 100 µM

Q: // fetch KM20L2 colon TGI for CC1CCC(=O)NCCCCC(=O)N1 (stereo unspecified)
Result: > 100 µM

---

Test system: CCRF-CEM leukemia
Assay info: NCI tumour cell line growth inhibition, 48 h
TGI for assorted compounds

Check out these entries, answers already filled in.
COC1=CC(=Nc2c(Cl)cc(Cl)cc2OC(=O)c2ccc([N+](=O)[O-])cc2)C=C(OC)C1=O > 25.9 µM
C[C@@]1(C(=O)Nc2ccc(F)nc2)CCCN1c1nc(Nc2cc(C3CC3)[nH]n2)c2cccn2n1 > 100 µM
Cc1cnc(-n2c(C)nc3cc(Cl)ccc3c2=O)s1 > 100 µM
O=S1(=O)OCCOS(=O)(=O)C1(Br)Cc1ccccc1 > 100 µM

Q: # TGI lookup, item `Cc1ccc(C(=O)O)cc1NC(=O)c1cc(/C=C/c2ccccc2)[nH]c(=S)n1`
Result: > 100 µM
